Recorded AUC(0-t) values for a group of molecules are listed next.
MEASUREMENT DESCRIPTION: Pharmacokinetic study in rats (oral gavage and tail vein injection, plasma LC-MS/MS)
Type: in vivo
REPORTED CONDITIONS: rat, in vivo, SD rats, Iv, 1 mg/kg

The molecule listed as CCC[C@H](C)OC(=O)Nc1c(-c2ccc(C#CC3(CC(=O)O)CC3)c(C)n2)nnn1C has a reported AUC(0-t) of 5000 to 10000 ng·h/mL

The molecule listed as Cc1nc(-c2nnn(C)c2NC(=O)OC(C)CC(C)(F)F)ccc1C#CC1CC1C(=O)O (stereo not drawn) has a reported AUC(0-t) of 5000 to 10000 ng·h/mL

The molecule listed as Cc1nc(-c2nnn(C)c2COC(=O)N(C)CCC(C)(F)F)ccc1C#CC1CCC1C(=O)O (racemic) has a reported AUC(0-t) of 1200 to 3000 ng·h/mL

The molecule listed as Cc1nc(-c2nnn(C)c2NC(=O)O[C@H](C)CCC(C)(F)F)ccc1C#CC1(CC(=O)O)CC1 has a reported AUC(0-t) of 3000 to 5000 ng·h/mL

The molecule listed as Cc1nc(-c2nnn(C)c2NC(=O)O[C@H](C)CC(C)(C)F)ccc1C#C[C@@H]1CC[C@H]1C(=O)O has a reported AUC(0-t) of 3000 to 5000 ng·h/mL

The molecule listed as Cc1nc(-c2nnn(C)c2NC(=O)OC(C)CCCF)ccc1C#CC1(CC(=O)O)CC1 (single isomer, unassigned) has a reported AUC(0-t) of 5000 to 10000 ng·h/mL

====

Recorded AUC(0-t) values for a group of compounds are listed next.
MEASUREMENT DESCRIPTION: Pharmacokinetic study in rats (oral gavage and tail vein injection, plasma LC-MS/MS)
Format: in vivo
REPORTED CONDITIONS: rat, SD rats, Po, 1 mg/kg

Recorded results for 3 compounds are shown here.
The compound listed as CCc1nc(-c2noc(C)c2NC(=O)O[C@H](C)C(F)(F)CC)ccc1C#CC1(CC(=O)O)CC(OC)C1 (stereo partly shown) [compound 492] has a reported AUC(0-t) of 5000 to 10000 ng·h/mL

The compound listed as CCC(F)(F)[C@@H](C)OC(=O)Nc1c(-c2ccc(C#CC3(CC(=O)O)CC(OC)C3)c(C)n2)noc1C (stereo partly shown) [compound 468] has a reported AUC(0-t) of 5000 to 10000 ng·h/mL

The compound listed as Cc1nc(-c2nnn(C)c2NC(=O)O[C@H](C)CC(C)(C)F)ccc1C#CC1(CC(=O)O)CC1 [compound 263] has a reported AUC(0-t) of 5000 to 10000 ng·h/mL

Others:
The compound listed as CCC(F)(F)[C@@H](C)OC(=O)Nc1c(-c2ccc(C#CC3(CC(=O)O)CC(OC)C3)c(C)n2)nnn1C (stereo partly shown) [compound 279] has a reported AUC(0-t) of 5000 to 10000 ng·h/mL

The compound listed as Cc1nc(-c2nnn(C)c2NC(=O)OC(C)CC(C)(F)F)ccc1C#CC1(CC(=O)O)CC1 (racemic) [compound 311] has a reported AUC(0-t) of 3000 to 5000 ng·h/mL

The compound listed as Cc1nc(-c2nnn(C)c2NC(=O)O[C@H](C)c2ccccc2Cl)ccc1C#C[C@H]1CC[C@@H]1C(=O)O [compound 033] has a reported AUC(0-t) of 3000 to 5000 ng·h/mL

The compound listed as CCC(F)(F)CC(C)OC(=O)Nc1c(-c2ccc(C#CC3CCC3C(=O)O)c(C)n2)nnn1C (single isomer, unassigned) [245-B] has a reported AUC(0-t) of 3000 to 5000 ng·h/mL

Taken from patent EP4755881A1.
